- Tested on: DU-145 prostate
- Assay Protocol: NCI-60 one-dose screen, 48 h (100 = growth as untreated, 0 = no growth, -100 = all killed)
- Measurement Context: 10 µM unless noted
The panel holds about 83,000 compounds, 20% with a hit somewhere; the sample as a whole holds those more often. Activity calls are given as the source filed them. The calls were made as follows: active = growth percent below 10; inactive = the rest.
Consider the following molecules; for each one, report its growth.

[[record]]
molecule = "NS(=O)(=O)c1ccc(CCN2C(=O)C=CC2=O)cc1"
endpoint_name = "growth"
result = "109% (inactive)"


Dear colleague, could you send me growth for each of the items below? Thanks.
1. OCc1cnccc1NCCCOc1ccccc1
2. COC(=O)C1=C(C(=O)ON)[C@@H]2C=C[C@@]1([C@@H](Cc1ccccc1)Nc1ccccc1)O2
3. Cc1c(C(=O)NCCC(=O)NO)sc2ncnc(Nc3ccc(F)c(Cl)c3)c12
4. CCOC(=O)/C(C#N)=C1/NNC(=Nc2cccnc2)S1
5. O=C(/C=C(/C=C/c1coc2ccccc12)OB(F)F)/C=C/c1coc2ccccc12

Result:
["104% (inactive)", "80% (inactive)", "111% (inactive)", "105% (inactive)", "99.1% (inactive)"]

Dear colleague, could you send me growth for each of the items below? Thanks.
1. NS(=O)(=O)c1ccc(CCN2C(=O)c3cc(Cl)c(Cl)cc3C2=O)cc1
2. Cn1c(N2NC(=O)C(N=Nc3ccc(S(N)(=O)=O)cc3)C2=O)nc(-c2ccco2)c(C#N)c1=O (configuration not stated)
3. Fc1ccc2c(-c3cncn3CCc3ccccc3)c[nH]c2c1
4. CC/C(=C\c1ccc(OC)cc1)C(=O)c1ccc(OC)cc1
5. CCNC(=O)Oc1ccc(/C(=C(\C)c2ccccc2)c2ccc(OCCN3CCCCC3)cc2)cc1
6. CCN(CC)c1ccc(/C=N/NC(=O)CSc2nc3ccccc3c(=O)n2CCc2ccc(S(N)(=O)=O)cc2)c(O)c1
7. O=[N+]([O-])c1ccc(N=Nc2cc(S(=O)(=O)O)c3cccc(S(=O)(=O)O)c3c2O)cc1
8. CC(Sc1nc2ccccc2c(=O)n1CCc1ccc(S(N)(=O)=O)cc1)C(=O)Nc1ccc(Cl)cc1 (configuration not stated)

Result:
104% (inactive)
95.7% (inactive)
104% (inactive)
105% (inactive)
84.1% (inactive)
31% (inactive)
132% (inactive)
99.4% (inactive)

Dear colleague, could you send me growth for each of the items below? Thanks.
1. COc1ccc2nc(-c3ccc(-c4noc(-c5cc(OC)c(OC)c(OC)c5)n4)cc3)[nH]c2c1
2. CCNC(=O)Oc1ccc(/C(=C(\C)c2ccccc2)c2ccc(OCCCN(C)C)cc2)cc1
3. CC1(C)CC(O)CCCCCCOc2c(CN)cccc2NC(=O)c2nc(cnc2N)-c2ccc(cc2)S1(=O)=O (configuration not stated)
4. Cc1ccc(S(=O)(=O)Nn2c3c(cc(-c4nc5ccccc5s4)c2=O)CCCCCC3)cc1

Result:
57.4% (inactive)
92.5% (inactive)
15.1% (inactive)
105% (inactive)

Dear colleague, could you send me growth for each of the items below? Thanks.
1. COc1cc2c(cc1OC)C(=O)/C(=C/c1cc(C)c(O)c(C)c1)S2
2. O=C(Cc1ccc(/C=C/C(=O)c2nccs2)cc1)Nc1ccccc1
3. O=C1c2ccccc2CCC12OC2c1cn(-c2ccccc2)nc1-c1ccc(Cl)cc1 (configuration not stated)
4. C[C@H]1[C@H](C)CC[C@]2(C(=O)NCC#CCN3CCN(C)CC3)CC[C@]3(C)C(=CC[C@@H]4[C@@]5(C)Cc6c([nH]c7ccccc67)C(C)(C)[C@@H]5CC[C@]43C)[C@H]12
5. CC(=O)Oc1ccc(/C=N/NC(N)=S)nc1
6. CCOC(=O)c1nc2c3ccccc3ccn2c1C(=O)OCC
7. CCc1ccc(-c2cn3ccnc3c(-c3ccc4ncn(Cc5ccccc5)c4c3)n2)cc1

Result:
1: 25.3% (inactive); 2: 105% (inactive); 3: 111% (inactive); 4: 73.1% (inactive); 5: 81.5% (inactive); 6: 92.1% (inactive); 7: 80.9% (inactive)

Dear colleague, could you send me growth for each of the items below? Thanks.
1. CCN1CCN(CCNc2nccc(-c3c(-c4cccc(OC)c4)nc4occn34)n2)S1(=O)=O
2. O=C1c2ccccc2C(=O)c2c([N+](=O)[O-])ccc(Cl)c21
3. C#Cc1cccc(NC(=O)c2cccc(NC(=O)CCl)c2)c1
4. O=C1c2cccc3c(-c4ccc5c(c4)ncn5C4CCCCC4)ccc(c23)C(=O)N1CCO
5. CNC(=O)c1cc(Cn2nc(C)c(NC(=O)Nc3ccc(Cl)c(C(F)(F)F)c3)c2C)ccn1
6. C=C1C(=O)O[C@H]2[C@H]1CC/C(COC(=O)NCc1c[nH]c3ccc(F)cc13)=C\CC[C@@]1(C)O[C@@H]21
7. CCCCCCNC(=O)Oc1ccc(/C(=C(\C)c2ccccc2)c2ccc(OCCN3CCCCC3)cc2)cc1

Result:
1. 104% (inactive)
2. 101% (inactive)
3. 4.82% [8.25 µM] (active)
4. 100% (inactive)
5. 101% (inactive)
6. -62.9% (active)
7. 82.8% (inactive)

Taken from PubChem BioAssay (NCI).
